Source listed as the OligoGym collection.

Field: remaining target (mRNA or protein) (fraction of control). Provide a value for each of the sequences that follow.
# System: NSMAF
# Test context: ASO; further: test concentration or dose not given here
These antisense oligonucleotides have a phosphorothioate backbone; sugars and methylation of C are not fully specified.
One number for each entry.

# Biosequence, System, Measured result
records = [
    ("TTCCATGTGCAGCTTTTC", "NSMAF", 0.34),
    ("ATCTGTCCTCCTTGTCTC", "NSMAF", 0.47),
    ("TGTTGAACATTCTATCTG", "NSMAF", 0.79),
    ("CTTCAGGCTATTGACTAG", "NSMAF", 0.46),
    ("ATACAGTCTCTCAAAGGA", "NSMAF", 0.73),
    ("TTTAGGTAGATGTCGGAA", "NSMAF", 0.52),
    ("CCTCCTTCATAGGTCAGG", "NSMAF", 0.74),
    ("GCATGGCTACCTTCTCAT", "NSMAF", 0.15),
    ("GAGTGTTATCTGGACCAC", "NSMAF", 0.28),
    ("GGCTCTATGCTGTTCAAA", "NSMAF", 0.39),
]

// each listed sequence needs a value for remaining target (mRNA or protein) (fraction of control)
1. TATGACAGTGGCATCTCC
2. CGAGACTGCAAAATAGCT
3. TCAAGGCAGGATGCTCTG

Ans.
1: 0.65; 2: 0.32; 3: 0.23

---

# System: MAP2K2
# Test context: ASO
These antisense oligonucleotides have a phosphorothioate backbone; sugars and methylation of C are not fully specified.
# thresholds on remaining target (mRNA or protein) (fraction of control) define classes: LOW (below 0.3), MID (0.3 to below 0.5), HIGH (0.5 or more)

# Biosequence, System, Group
records = [
    ("TTTCGAAGTCATCGTCTT", "MAP2K2", "HIGH"),
    ("GGTGCTCTCCGCAGGGTG", "MAP2K2", "LOW"),
    ("TGGTTTGTGAGCATCTTC", "MAP2K2", "LOW"),
    ("AACACACCGTTGGGCAGC", "MAP2K2", "LOW"),
    ("AGCTTCCTGGCCATGATG", "MAP2K2", "MID"),
    ("GTGCATGATCTGGTGCTT", "MAP2K2", "LOW"),
    ("CACTTCTTCCACCTCGGA", "MAP2K2", "MID"),
    ("CTGTGCTGGACTTTGGTG", "MAP2K2", "MID"),
    ("GTTTTGTTTTGTAACCTA", "MAP2K2", "HIGH"),
    ("TGTGTTCCATGCAAATGC", "MAP2K2", "HIGH"),
]

Qu. Class label required: TCTCCTCGGGAATCCTCT
Ans. MID

Qu. Could you do the same for CGTGCCCACGAAGGAGTT , please?
Ans. LOW

---

Task for the reader: assign each of the following sequences its reported remaining target (mRNA or protein) (fraction of control).
# System: MAP3K1
# Test context: ASO
These antisense oligonucleotides have a phosphorothioate backbone; sugars and methylation of C are not fully specified.
One number for each entry.

Example results:
# Biosequence, System, Measured result
rows = [
    ("ATTGGGTACTGTAGTAACCA", "MAP3K1", 0.54),
    ("AATCCTTTTCCAGTTTTCTC", "MAP3K1", 0.87),
    ("CCACCGACTCGGTAAGGTGG", "MAP3K1", 0.81),
    ("GCACTAGTTTGGGCTTTTGC", "MAP3K1", 0.28),
    ("CAGTCCGCCCGCTCGCGGCC", "MAP3K1", 0.34),
]

Each sequence below has a reported value. Please supply its remaining target (mRNA or protein) (fraction of control).
1. ATCATGATTTGTCAATCACA
2. GGTACTGTAGTAACCATTCT
3. GTTGTCGTTGTAAAGTGTCT
4. CTGGTGAAGTGAGTGGAAAC
5. GTAGATATCAATGTGGTTCC
6. CCCACTCCCCGCTGCGTCCG

Ans.
1. 0.62
2. 0.53
3. 0.45
4. 0.76
5. 0.75
6. 0.06

For the 3 sequences below, give their remaining target (mRNA or protein) (fraction of control) values.
1. GGGGTACTGTAGTAACCATT
2. GAGAAAACTTGCGCTGTGTT
3. GAATCCCTGAAGTCTATGCT

Ans.
0.55
0.37
0.52
